- Test system: 276233-004-R-J1-PDC complex spheroid viability
- Experimental Protocol: Anticancer human tumor 276233-004-R-J1-PDC patient-derived colon adenocarcinoma cell line growth inhibition [GQUAD]
- Measurement Setup: second compound 10 µM; first compound 0.1 µM; hits give low values
Metric: viability, T/C (%)
Kindly answer with a numeric value in %, unit omitted.

# Molecule, Result Unit, viability, T/C
measured = [
    ("CCCS(=O)(=O)Nc1ccc(F)c(C(=O)c2c[nH]c3ncc(-c4ccc(Cl)cc4)cc23)c1F + Cc1cnc(CNC(=O)c2c(=O)c3ccc(N4CCCN(C)CC4)nc3n3c2sc2ccccc23)cn1", "%", 70),
    ("C#Cc1c(F)ccc2cc(O)cc(-c3ncc4c(N5CC6CCC(C5)N6)nc(OCC56CCCN5CC(F)C6)nc4c3F)c12 (stereo not given) + Cc1[nH]c2ccc(F)cc2c1-c1nc2c3cccnc3c3ncccc3c2[nH]1", "%", 41.8),
    ("O=c1[nH]cc(F)c(=O)[nH]1 + CN(C)c1ccc(Nc2c3ccc(NC(=O)CCN4CCCC4)cc3nc3cc(NC(=O)CCN4CCCC4)ccc23)cc1", "%", 54.9),
    ("CC(=O)O[C@H]1C(=O)[C@@]2(C)[C@H]([C@H](OC(=O)c3ccccc3)[C@]3(O)C[C@H](OC(=O)[C@H](O)[C@@H](NC(=O)c4ccccc4)c4ccccc4)C(C)=C1C3(C)C)[C@]1(OC(C)=O)CO[C@@H]1C[C@@H]2O + Cc1[nH]c2ccc(F)cc2c1-c1nc2c3cccnc3c3ncccc3c2[nH]1", "%", 40.1),
]

Okay, next one:
Which viability, T/C value belongs to CCCS(=O)(=O)Nc1ccc(F)c(C(=O)c2c[nH]c3ncc(-c4ccc(Cl)cc4)cc23)c1F + Cc1[nH]c2ccc(F)cc2c1-c1nc2c3cccnc3c3ncccc3c2[nH]1 ?
35.4

###

- Tested on: 276233-004-R-J1-PDC complex spheroid viability
- Experimental Protocol: Anticancer human tumor 276233-004-R-J1-PDC cell line growth inhibition [GQUAD]; active = viability on the fitted dose curve at most 10% of control; inactive = the rest;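 further: spheroids exposed to drugs for seven days; 100% = DMSO vehicle control viability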
- Measurement Setup: second compound 3.16 µM; first compound 3.16 µM
The categories you may choose from are T for active, F for inactive

Example results:
# Compound, Class Assignment
rows = [
    ("O=C(NO)c1cnc(N2CCN(S(=O)(=O)c3ccc4ccccc4c3)CC2)nc1 + CN(C)c1ccc(Nc2c3ccc(NC(=O)CCN4CCCC4)cc3nc3cc(NC(=O)CCN4CCCC4)ccc23)cc1", "T"),
    ("CC(C)n1c(=O)n(C)c2cnc3cc(F)c(-c4ccc(OCCCN5CCCCC5)nc4)cc3c21 + CN(C)c1ccc(Nc2c3ccc(NC(=O)CCN4CCCC4)cc3nc3cc(NC(=O)CCN4CCCC4)ccc23)cc1", "F"),
]

Please look at the following compound next.
Could you please tell me the result logged for C=CC(=O)N1CCN(c2nc(=O)n(-c3c(C)ccnc3C(C)C)c3nc(-c4c(O)cccc4F)c(F)cc23)C(C)C1 (stereo not drawn) + CN(C)c1ccc(Nc2c3ccc(NC(=O)CCN4CCCC4)cc3nc3cc(NC(=O)CCN4CCCC4)ccc23)cc1 in this assay?
F

###

- Tested on: 276233-004-R-J1-PDC complex spheroid viability
- Experimental Protocol: Anticancer human tumor 276233-004-R-J1-PDC cell line growth inhibition [GQUAD];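 further: spheroids exposed to drugs for seven days; 100% = DMSO vehicle control viability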
- Measurement Setup: second compound 3.16 µM; first compound 1 µM; hits give low values
Metric: viability, T/C (%)
Kindly answer with a numeric value in %, unit omitted.

# Compound, Result Unit, Experimental Result
records = [
    ("Nc1ccn(C2OC(CO)C(O)C2(F)F)c(=O)n1 (stereo not given) + CN(C)c1ccc(Nc2c3ccc(NC(=O)CCN4CCCC4)cc3nc3cc(NC(=O)CCN4CCCC4)ccc23)cc1", "%", 58.1),
    ("COc1ccc([C@@H](O)c2cc(-c3ncnc4cc(N5CCOCC5)ccc34)c(F)cc2Cl)nn1 + Cc1cnc(CNC(=O)c2c(=O)c3ccc(N4CCCN(C)CC4)nc3n3c2sc2ccccc23)cn1", "%", 56.2),
    ("CC(=O)O[C@H]1C(=O)[C@@]2(C)[C@H]([C@H](OC(=O)c3ccccc3)[C@]3(O)C[C@H](OC(=O)[C@H](O)[C@@H](NC(=O)c4ccccc4)c4ccccc4)C(C)=C1C3(C)C)[C@]1(OC(C)=O)CO[C@@H]1C[C@@H]2O + CN(C)c1ccc(Nc2c3ccc(NC(=O)CCN4CCCC4)cc3nc3cc(NC(=O)CCN4CCCC4)ccc23)cc1", "%", 49.5),
    ("Cc1cccc(N(C)C(=O)C2C(O)CCN2c2nc(C)cc(C(F)(F)F)c2C#N)c1 (stereo not given) + Cc1[nH]c2ccc(F)cc2c1-c1nc2c3cccnc3c3ncccc3c2[nH]1", "%", 59.6),
]

Okay, next one:
Which viability, T/C value belongs to COc1ccc([C@@H](O)c2cc(-c3ncnc4cc(N5CCOCC5)ccc34)c(F)cc2Cl)nn1 + Cc1[nH]c2ccc(F)cc2c1-c1nc2c3cccnc3c3ncccc3c2[nH]1 ?
49.1

###

- System: 276233-004-R-J1-PDC complex spheroid viability
- Experimental Protocol: Anticancer human tumor 276233-004-R-J1-PDC cell line growth inhibition [GQUAD];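 further: spheroids exposed to drugs for seven days; 100% = DMSO vehicle control viability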
- Measurement Setup: second compound 3.16 µM; first compound 0.316 µM; hits give low values
Metric: viability, T/C

# Compound, Tested Target, viability, T/C
rows = [
    ("Cn1ncnc1[C@H]1c2n[nH]c(=O)c3cc(F)cc(c23)N[C@@H]1c1ccc(F)cc1 + Cc1[nH]c2ccc(F)cc2c1-c1nc2c3cccnc3c3ncccc3c2[nH]1", "276233-004-R-J1-PDC complex spheroid viability", "57.4%"),
    ("O=C(c1cc(Cc2n[nH]c(=O)c3ccccc23)ccc1F)N1CCN(C(=O)C2CC2)CC1 + Cc1cnc(CNC(=O)c2c(=O)c3ccc(N4CCCN(C)CC4)nc3n3c2sc2ccccc23)cn1", "276233-004-R-J1-PDC complex spheroid viability", "61.1%"),
    ("Nc1ccn(C2OC(CO)C(O)C2(F)F)c(=O)n1 (stereo unspecified) + Cc1cnc(CNC(=O)c2c(=O)c3ccc(N4CCCN(C)CC4)nc3n3c2sc2ccccc23)cn1", "276233-004-R-J1-PDC complex spheroid viability", "91.8%"),
    ("COc1ncnc(C2CC2)c1-c1ncc2cnn(Cc3ccc(-c4nc(C(F)(F)F)cn4C(C)C)cc3)c2n1 + Cc1[nH]c2ccc(F)cc2c1-c1nc2c3cccnc3c3ncccc3c2[nH]1", "276233-004-R-J1-PDC complex spheroid viability", "15.2%"),
    ("CC(C)n1c(=O)n(C)c2cnc3cc(F)c(-c4ccc(OCCCN5CCCCC5)nc4)cc3c21 + Cc1[nH]c2ccc(F)cc2c1-c1nc2c3cccnc3c3ncccc3c2[nH]1", "276233-004-R-J1-PDC complex spheroid viability", "55%"),
    ("O=C(NO)c1cnc(N2CCN(S(=O)(=O)c3ccc4ccccc4c3)CC2)nc1 + Cc1[nH]c2ccc(F)cc2c1-c1nc2c3cccnc3c3ncccc3c2[nH]1", "276233-004-R-J1-PDC complex spheroid viability", "14.8%"),
    ("CC1COCCN1c1cc(C2(O)CC3CCC(C2)O3)c2cnn(-c3ccn[nH]3)c2n1 (stereo unspecified) + CN(C)c1ccc(Nc2c3ccc(NC(=O)CCN4CCCC4)cc3nc3cc(NC(=O)CCN4CCCC4)ccc23)cc1", "276233-004-R-J1-PDC complex spheroid viability", "52.8%"),
    ("CC[C@@]1(O)C(=O)OCc2c1cc1n(c2=O)Cc2cc3c(CN(C)C)c(O)ccc3nc2-1 + Cc1[nH]c2ccc(F)cc2c1-c1nc2c3cccnc3c3ncccc3c2[nH]1", "276233-004-R-J1-PDC complex spheroid viability", "58.3%"),
]

Which viability, T/C value belongs to O=C(NO)c1cnc(N2CCN(S(=O)(=O)c3ccc4ccccc4c3)CC2)nc1 + Cc1cnc(CNC(=O)c2c(=O)c3ccc(N4CCCN(C)CC4)nc3n3c2sc2ccccc23)cn1 ?
21.5%

Which viability, T/C value belongs to CCc1c2c(nc3ccc(O)cc13)-c1cc3c(c(=O)n1C2)COC(=O)[C@]3(O)CC + CN(C)c1ccc(Nc2c3ccc(NC(=O)CCN4CCCC4)cc3nc3cc(NC(=O)CCN4CCCC4)ccc23)cc1 ?
70.4%

Which viability, T/C value belongs to CC(=O)O[C@H]1C(=O)[C@@]2(C)[C@H]([C@H](OC(=O)c3ccccc3)[C@]3(O)C[C@H](OC(=O)[C@H](O)[C@@H](NC(=O)c4ccccc4)c4ccccc4)C(C)=C1C3(C)C)[C@]1(OC(C)=O)CO[C@@H]1C[C@@H]2O + Cc1[nH]c2ccc(F)cc2c1-c1nc2c3cccnc3c3ncccc3c2[nH]1 ?
15.4%

###

- System: 276233-004-R-J1-PDC complex spheroid viability
- Experimental Protocol: Anticancer human tumor 276233-004-R-J1-PDC cell line growth inhibition [GQUAD];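 further: spheroids exposed to drugs for seven days; 100% = DMSO vehicle control viability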
- Measurement Setup: second compound 0.316 µM; first compound 0.1 µM; hits give low values
// returns 0 unless viability, T/C is strictly below 80%, in which case 1

Example results:
# Molecule, Class Assignment
data = [
    ("CC1COCCN1c1cc(-c2ccnn2C)c2ccnc(-c3ccn[nH]3)c2n1 (stereo unspecified) + Cc1[nH]c2ccc(F)cc2c1-c1nc2c3cccnc3c3ncccc3c2[nH]1", 0),
    ("CC1COCCN1c1cc(C2(O)CC3CCC(C2)O3)c2cnn(-c3ccn[nH]3)c2n1 (stereo unspecified) + CN(C)c1ccc(Nc2c3ccc(NC(=O)CCN4CCCC4)cc3nc3cc(NC(=O)CCN4CCCC4)ccc23)cc1", 1),
    ("CC(=O)O[C@H]1C(=O)[C@@]2(C)[C@H]([C@H](OC(=O)c3ccccc3)[C@]3(O)C[C@H](OC(=O)[C@H](O)[C@@H](NC(=O)c4ccccc4)c4ccccc4)C(C)=C1C3(C)C)[C@]1(OC(C)=O)CO[C@@H]1C[C@@H]2O + Cc1cnc(CNC(=O)c2c(=O)c3ccc(N4CCCN(C)CC4)nc3n3c2sc2ccccc23)cn1", 0),
    ("COc1ncnc(C2CC2)c1-c1ncc2cnn(Cc3ccc(-c4nc(C(F)(F)F)cn4C(C)C)cc3)c2n1 + Cc1cnc(CNC(=O)c2c(=O)c3ccc(N4CCCN(C)CC4)nc3n3c2sc2ccccc23)cn1", 0),
    ("O=C(NO)c1cnc(N2CCN(S(=O)(=O)c3ccc4ccccc4c3)CC2)nc1 + CN(C)c1ccc(Nc2c3ccc(NC(=O)CCN4CCCC4)cc3nc3cc(NC(=O)CCN4CCCC4)ccc23)cc1", 0),
]

In plain terms, does CC(C)(O)C1CCC(Nc2ccc3ncc(-c4cccc(C(F)(F)F)c4)n3n2)CC1 (stereo unspecified) + Cc1cnc(CNC(=O)c2c(=O)c3ccc(N4CCCN(C)CC4)nc3n3c2sc2ccccc23)cn1 come in under 80% for viability, T/C?
0

In plain terms, does COc1cccc2c1C(=O)c1c(O)c3c(c(O)c1C2=O)CC(O)(C(=O)CO)CC3OC1CC(N)C(O)C(C)O1 (stereo unspecified) + Cc1[nH]c2ccc(F)cc2c1-c1nc2c3cccnc3c3ncccc3c2[nH]1 come in under 80% for viability, T/C?
0

In plain terms, does CC1COCCN1c1cc(C2(O)CC3CCC(C2)O3)c2cnn(-c3ccn[nH]3)c2n1 (stereo unspecified) + Cc1cnc(CNC(=O)c2c(=O)c3ccc(N4CCCN(C)CC4)nc3n3c2sc2ccccc23)cn1 come in under 80% for viability, T/C?
0

In plain terms, does O=C(NO)c1cnc(N2CCN(S(=O)(=O)c3ccc4ccccc4c3)CC2)nc1 + Cc1[nH]c2ccc(F)cc2c1-c1nc2c3cccnc3c3ncccc3c2[nH]1 come in under 80% for viability, T/C?
1
